test: in vitro; conditions: human, hela cells, % viability
In this section we review reported viability at 28.5 h, 10 µM values for a set of compounds.
A number alone suffices; assume %.

Sample records with viability at 28.5 h, 10 µM:
# compound, measure unit, viability at 28.5 h, 10 µM
records = [
    ("COc1cccc(C2(NC(=O)Cn3nc(C)cc3C)CCCC2)c1", "%", 98.1),
    ("COc1ccc(CC(=O)NCCc2nnc3ccccn23)cc1", "%", 74.7),
    ("CCCN1CCN(S(=O)(=O)c2ccc(C)cc2)CC1", "%", 90),
    ("CN(C)CCNc1nccc2sc(S(=O)(=O)NCCC3=CCCCC3)cc12 [CBK038244C]", "%", 108),
]

(Q) Sample O=C(Nc1ccc2oc(-c3cccnc3)nc2c1)c1ccc(-c2ccccc2)cc1 — what was its viability at 28.5 h, 10 µM?
(A) 88.3

(Q) Dear colleague, I am looking for the recorded viability at 28.5 h, 10 µM of the following compound: O=C(c1[nH]nc(O)c1Cc1c(Cl)cccc1Cl)N1CCOCC1
(A) 101

(Q) Request the reported viability at 28.5 h, 10 µM associated with COc1ccc(C)cc1NC(=O)CN(c1ccc(F)cc1)S(=O)(=O)c1ccc(C)cc1
(A) 101

(Q) Quick one: viability at 28.5 h, 10 µM of Oc1cc2cccnc2nc1-c1ccc2c(c1)CCO2 ?
(A) 76

(Q) Requested read-out: viability at 28.5 h, 10 µM. Entry: O=C(O)C1CC=CCC1C(=O)N1CCN(C(=O)c2ccco2)CC1 (stereo not drawn)
(A) 94.1

---

assay: in vitro; settings: human, hela cells, % viability
assay endpoint: viability at 28.5 h, 10 µM (%)
// note: answer is a bare numeric in %

Solved entries (count: 6):
# compound, measure unit, value reported
measured = [
    ("O=[N+]([O-])c1ccc(N2CCN(Cc3c(O)ccc4ccccc34)CC2)cc1NCc1ccccc1 [CBK268408]", "%", 105),
    ("CCC(=O)N1CCCc2cc(C(O)CN3CCN(c4cccc(OC)c4)CC3)ccc21 (stereo not drawn) [CBK286476]", "%", 114),
    ("CCCc1c(C(=O)NC2CC2)cnn1-c1ccc(Cl)cc1 [CBK006334]", "%", 112),
    ("O=C(O)CCc1ccc(S(=O)(=O)N2CCOCC2)cc1 [CBK287224]", "%", 90.1),
    ("c1csc(CN2CCC[C@H]2c2nc(-c3ccc(-n4ccnc4)nc3)no2)c1 [CBK288895]", "%", 111),
    ("CC(C)(C)OC(=O)N1CCN(Cc2ccn(Cc3ccc(S(C)(=O)=O)cc3)c2)CC1 [CBK144936]", "%", 119),
]

(Q) Need viability at 28.5 h, 10 µM, item O=S(=O)(Nc1nc(CCNCCO)cs1)c1ccc(Oc2ccccc2)cc1 [CBK034632]
(A) 111

(Q) Give its viability at 28.5 h, 10 µM value. Item: CCOC(=O)c1c(NC(=O)CSc2nc[nH]n2)sc2c1CCCCC2 [CBK267231]
(A) 90.8

(Q) Item CN(C)Cc1ccccc1C(O)c1ccccc1 (stereo not drawn) [CBK261277] has what recorded viability at 28.5 h, 10 µM?
(A) 94.4

Data origin: paper PMC12040169
